Target: WDR5-MYC (Homo sapiens) (UniProt P61964+P01106)
Assay: Disruption of WDR5/5-FAM-labelled MYC (261 to 267 residues)(unknown origin) interaction at 50 uM incubated for 120 mins by FP assay relative to control
Assay type: protein assay
measure: inhibition (%)

The following compounds have reported results that may help.
{"compound": "Nc1nc(-c2ccc(Cl)cc2)c(Br)s1", "unit.symbol": "%", "value": -5}
{"compound": "N#Cc1sc(N)nc1-c1ccc(Cl)cc1", "unit.symbol": "%", "value": 1.1}

a = Nc1nc(-c2ccc(Cl)cc2)cs1
b = C[S+]([O-])c1sc(N)nc1-c1ccc(Cl)cc1 (stereo not given)
c = CS(=O)(=O)c1sc(N)nc1-c1ccc(Cl)cc1
Arrange these compounds by their inhibition, starting with the largest number. To answer, write out the labels according to the requested order.
a, b, c
